Entries and their measured OECD 306 biodegradation Day 28 follow.
Method summary: OECD 306 biodegradation
Condition description: day 28
Provide only the numeric value, understood in %.

Completed entries (count: 5):
N.O=C(O)CS [ATG, Ammonium Thioglycolate]
39
O=C([O-])c1ccccc1.[Na+] [Reference, sodium benzoate, reference compound]
68
CCCCCCCCCC(=O)N(C)CC(O)C(O)C(O)C(O)CO (stereo not drawn) [Glucamide #1]
31
CCCCCCCC/C=C\CCCCCCCCN[C@@H](CCSC)C(=O)O
60
OCCS
17

Given item NC(N)=S , the value recorded as its OECD 306 biodegradation Day 28 is 55

###

Method summary: OECD 306 biodegradation
Condition description: day 14
Entries and their measured OECD 306 biodegradation Day 14 follow.
Please give the number followed by its unit.

Completed entries (count: 5):
OCCS
6%
N.O=C(O)CS [ATG, Ammonium Thioglycolate]
20%
CCCCCCCC/C=C\CCCCCCCCN[C@@H](CCSC)C(=O)O
60%
NC(N)=S
32%
CCCCCCCCCC(=O)N(C)CC(O)C(O)C(O)C(O)CO (stereo not drawn) [Glucamide #1]
25%

Let's switch to this compound now.
Given item O=C([O-])c1ccccc1.[Na+] [Reference, sodium benzoate, reference compound] , the value recorded as its OECD 306 biodegradation Day 14 is 74%

###

Method summary: OECD 306 biodegradation
Condition description: day 21
Experimental readout: OECD 306 biodegradation Day 21 (%)
Provide only the numeric value, understood in %.

Given item N.O=C(O)CS [ATG, Ammonium Thioglycolate] , the value recorded as its OECD 306 biodegradation Day 21 is 33

Given item CCCCCCCC/C=C\CCCCCCCCN[C@@H](CCSC)C(=O)O , the value recorded as its OECD 306 biodegradation Day 21 is 60

Given item CCCCCCCCCC(=O)N(C)CC(O)C(O)C(O)C(O)CO (stereo not drawn) [Glucamide #1] , the value recorded as its OECD 306 biodegradation Day 21 is 33

Given item O=C([O-])c1ccccc1.[Na+] [Reference, sodium benzoate, reference compound] , the value recorded as its OECD 306 biodegradation Day 21 is 86

Given item NC(N)=S , the value recorded as its OECD 306 biodegradation Day 21 is 20

Given item OCCS , the value recorded as its OECD 306 biodegradation Day 21 is 8

###

Method summary: OECD 306 biodegradation
Condition description: day 7
Entries and their measured OECD 306 biodegradation Day 7 follow.
Provide only the numeric value, understood in %.

O=C([O-])c1ccccc1.[Na+] [Reference, sodium benzoate, reference compound]
78
OCCS [MET, Mercaptoethanol]
5

Given item N.O=C(O)CS [ATG, Ammonium Thioglycolate] , the value recorded as its OECD 306 biodegradation Day 7 is 9

Given item NC(N)=S [TU, Thiourea] , the value recorded as its OECD 306 biodegradation Day 7 is 19

Given item CCCCCCCCCC(=O)N(C)CC(O)C(O)C(O)C(O)CO (stereo not drawn) [Glucamide #1] , the value recorded as its OECD 306 biodegradation Day 7 is 15

Given item CCCCCCCC/C=C\CCCCCCCCN[C@@H](CCSC)C(=O)O [OMet, N-Oleyl-Methionine] , the value recorded as its OECD 306 biodegradation Day 7 is 60

###

Method summary: Corrosion test, rotating cylinder electrode (RCE), LPR
Condition description: 150° F., 2000 RPM, synthetic brine, 100% CO2, 12 ppm total inhibitor, vs 2 hr baseline
Experimental readout: Protection Final 3 hr

Completed entries (count: 4):
CCCCCCCCCC(=O)N(C)CC1OC(CO)C(O)C1O (stereo not shown) [Glucamide #3]
93.5%
CCCCCCCC/C=C\CCCCCCCC(=O)N(C)CC1OC(CO)C(O)C1O (stereo not shown) [Glucamide #6]
94.2%
CC(C)CCC(C)CCC(C)CC(=O)N(C)CC1OC(CO)C(O)C1O (stereo not shown) [Glucamide #4]
94.3%
N.N.O=S(O)(O)=S [ATS, Ammoniumthiosulfate]
91.2%

Given item CC(C)CCC(C)CCC(C)CC(=O)N(C)CC(O)C(O)C(O)C(O)CO (stereo not shown) [Glucamide #2] , the value recorded as its Protection Final 3 hr is 93.8%

Given item CCCCCCCC/C=C\CCCCCCCCN[C@@H](CCSC)C(=O)O , the value recorded as its Protection Final 3 hr is 92.7%

Given item CCCCCCCCCC(=O)N(C)CC(O)C(O)C(O)C(O)CO (stereo not shown) [Glucamide #1] , the value recorded as its Protection Final 3 hr is 92.7%

###

Method summary: Corrosion test, rotating cylinder electrode (RCE), LPR
Condition description: 150° F., 2000 RPM, synthetic brine, 100% CO2, 12 ppm total inhibitor, vs 2 hr baseline
Description: In order to evaluate the corrosion inhibition efficacy of the formulations, two different test methods were employed: rotating cylinder electrode (RCE) tests and high pressure, high temperature (HPHT) autoclave weight loss tests. For all testing, the following standard brine composition was used (as outlined in table 3): A gas composition of 100% CO2 was used throughout testing. The metallurgy of the coupons tested was C1018 carbon steel for RCE testing and HPHT autoclave testing. […]
Experimental readout: Protection Final 3 hr (%)
Provide only the numeric value, understood in %.

Completed entries (count: 2):
OCCS
91.4
N.O=C(O)CS [ATG, Ammonium Thioglycolate]
91.4

Let's switch to this compound now.
Given item CCCCCCCC/C=C\CCCCCCCC(=O)N(C)CC(O)C(O)C(O)C(O)CO (stereo not drawn) [Glucamide #5] , the value recorded as its Protection Final 3 hr is 94.0
